# tested_target: PDGF-R (Mus musculus)
# Construct: endogenous in cells
# Sequence (P05622 32-1098): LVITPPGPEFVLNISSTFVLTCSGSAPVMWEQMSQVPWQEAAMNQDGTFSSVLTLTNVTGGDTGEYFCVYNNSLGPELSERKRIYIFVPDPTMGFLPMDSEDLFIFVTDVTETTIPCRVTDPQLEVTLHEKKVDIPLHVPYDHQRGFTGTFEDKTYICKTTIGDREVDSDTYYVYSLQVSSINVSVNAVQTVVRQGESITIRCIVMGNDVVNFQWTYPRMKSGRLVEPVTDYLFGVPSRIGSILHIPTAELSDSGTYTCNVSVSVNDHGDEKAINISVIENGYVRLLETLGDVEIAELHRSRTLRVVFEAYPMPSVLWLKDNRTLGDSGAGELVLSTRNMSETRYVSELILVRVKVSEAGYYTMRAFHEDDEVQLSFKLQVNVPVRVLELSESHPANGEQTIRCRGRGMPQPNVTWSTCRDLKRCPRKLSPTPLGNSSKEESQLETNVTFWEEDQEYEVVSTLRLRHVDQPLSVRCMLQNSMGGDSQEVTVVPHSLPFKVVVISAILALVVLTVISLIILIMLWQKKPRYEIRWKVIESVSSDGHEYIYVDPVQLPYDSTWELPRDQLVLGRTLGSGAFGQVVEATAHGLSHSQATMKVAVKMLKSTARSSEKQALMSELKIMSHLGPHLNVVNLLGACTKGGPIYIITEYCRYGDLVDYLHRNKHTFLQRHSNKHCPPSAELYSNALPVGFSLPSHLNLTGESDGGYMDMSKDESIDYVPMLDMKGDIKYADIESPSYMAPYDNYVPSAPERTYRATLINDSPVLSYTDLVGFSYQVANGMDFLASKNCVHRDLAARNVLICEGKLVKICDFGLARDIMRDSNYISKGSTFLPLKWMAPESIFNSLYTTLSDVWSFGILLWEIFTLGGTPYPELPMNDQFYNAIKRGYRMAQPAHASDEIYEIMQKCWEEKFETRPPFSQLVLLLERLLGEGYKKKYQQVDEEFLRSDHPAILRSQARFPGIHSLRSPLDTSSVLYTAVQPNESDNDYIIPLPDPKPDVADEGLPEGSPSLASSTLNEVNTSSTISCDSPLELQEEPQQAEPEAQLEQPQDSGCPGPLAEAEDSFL
# procedure_details: Inhibition of PDGF-R cell-free autophosphorylation
# condition_notes: lysate from NIH 3T3 cells, stimulated with 10 ng/ml PDGF, [γ-^32 P]ATP, 4° C., immunoprecipitation
pIC50: −log10 of the molar value.
Assign pIC50 to each entry below.

Use these answered entries as a reference point.
- smiles_record: "COc1ccc(-c2cnc3cc4cn[nH]c4cc3n2)cc1F"
  pIC50: "> 7.70"
- smiles_record: "COc1ccc(-c2cnc3cc4cn(C)nc4cc3n2)cc1F"
  pIC50: "> 7.70"

Give measured pIC50 for every item shown.
1. Cn1cc2cc3ncc(-c4ccc(Cl)s4)nc3cc2n1
2. COc1ccc(-c2cnc3cc4cnn(C)c4cc3n2)cc1F

[6.52, "> 5.70"]

Supply measured pIC50 of `Clc1ccc(-c2cnc3cc4cn[nH]c4cc3n2)s1` in your reply.
5.00 to 5.70
